Each entry below carries its recorded EC50.
- System: Jurkat cells
- protocol-text: IL-2 secretion assay in CD3/CD28-activated Jurkat cells (AlphaLISA)
- Type: cell-based
- condition-parameters: Homo sapiens, CD3/CD28 T Cell Activator, 24 h, IL-2 AlphaLISA

CC1CC(c2cccc(-n3cc(C4CC4)c4cc(CNC5(CO)CCC5)[nH]c4c3=O)c2)(c2nncn2C)C1 (centres unmarked) = < 100 nM
C[C@H]1CCCN(Cc2cc3c(C4CC4)cn(-c4cccc(C5(Cn6nccn6)CC(F)(F)C5)c4)c(=O)c3[nH]2)C1 = 100 to 1000 nM
CO[C@H]1C[C@](c2cccc(-n3cc(C4CC4)c4cc(CN5CCC[C@H](C)C5)[nH]c4c3=O)c2)(c2nncn2C)C1 = < 100 nM
CC1CC(c2cccc(-n3cc(C4CC4)c4cc(CN5CCCC[C@@H]5C)[nH]c4c3=O)c2)(c2nncn2C)C1 (some centres unmarked) = < 100 nM

Next, consider the following compound.
Query: Indicate the recorded EC50 value for this compound: C[C@H]1CCCN(Cc2cc3c(C4CC4)cn(-c4cccc([C@]5(c6nccn6C)C[C@H](F)C5)c4)c(=O)c3[nH]2)C1
Response: < 100 nM

Origin of the recorded values: patent US20260028336A1
